- TESTED SYSTEM: Serine/threonine-protein kinase PAK 2 (Homo sapiens);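 also: reported values are mean inhibition of PAK2, averaged over measurements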
- CONDITION DETAILS: at 1 µM
// values below are reported inhibition
Report as a plain number; the unit % is understood.

Examples with their reported inhibition follow.
CCCN1CCC=C(c2ccc(Nc3nc(Nc4ccccc4C(N)=O)c4cc[nH]c4n3)c(C)c2)C1 3.03
CS(=O)(=O)CCNCc1ccc(-c2ccc3ncnc(Nc4ccc(OCc5cccc(F)c5)c(C(F)(F)F)c4)c3c2)o1 1.87
Nc1ncnc2occ(-c3ccc(NC(=O)Nc4cc(C(F)(F)F)cc(C(F)(F)F)c4)cc3)c12 0.99
Fc1cccc(COc2ccc(Nc3ncnc4cc(-c5ccc[nH]5)sc34)cc2Cl)c1 -0.55
CCn1c(-c2nonc2N)nc2cncc(C(=O)N3CC[C@H](N)C3)c21 1.51
NS(=O)(=O)c1cccc(-c2ccc3c(NC(=O)C4CC4)n[nH]c3c2)c1 -1.15
CS(=O)(=O)CCN(CC#N)Cc1ccc(-c2ccc3ncnc(Nc4ccc(OCc5cccc(F)c5)c(Cl)c4)c3c2)o1 0.16
CN(C)c1cc2c(Nc3ccc4nc(Cc5ccccc5)[nH]c4c3)ncnc2cn1 1.52

# next compound below
Q: Answer with reported inhibition of CS(=O)(=O)CCNCc1ccc(-c2ccc3ncnc(Nc4ccc(OCc5ccccc5)c(Cl)c4)c3c2)o1
A: -0.12
